- Measured On: human GPR40 (Homo sapiens)
- Assay Text: Calcium mobilization assay, agonistic activity on GPR40
- Assay type: cell-based
- Experimental Setup: cells expressing human GPR40 (hGPR40-1321N1)
Parameter Measured: GPR40 agonistic activity (pEC50)

Illustrative cases are given below, each with its answer.
Molecule: O=C(O)CCc1ccc(C#Cc2cccc(C(F)(F)F)c2)cc1 [Example A14]
GPR40 agonistic activity (pEC50): 7.05
//
Molecule: Cc1cc(C)cc(C#Cc2ccc(CCC(=O)O)cc2)c1 [Example A15]
GPR40 agonistic activity (pEC50): 7.13
//
Molecule: Cc1cccc(C#Cc2ccc(CCC(=O)O)cc2)c1C [Example A16]
GPR40 agonistic activity (pEC50): 7.06
//
Molecule: Cc1ccccc1C#Cc1ccc(CCC(=O)O)cc1 [Example A9]
GPR40 agonistic activity (pEC50): 7.49
//
Molecule: Nc1cccc(C#Cc2ccc(CCC(=O)O)cc2)c1 [Example A17]
GPR40 agonistic activity (pEC50): 5.96
//
Molecule: O=C(O)C1CC1c1ccc(C#Cc2cc(Cl)nc(Cl)c2)cc1 (stereo not drawn) [Example A35]
GPR40 agonistic activity (pEC50): 7.37
//
Molecule: C#Cc1cccc(C#Cc2ccc(CCC(=O)O)cc2)c1 [Example A18]
GPR40 agonistic activity (pEC50): 6.81
//
Molecule: CCc1ccccc1C#Cc1ccc(CCC(=O)O)cc1 [Example A30]
GPR40 agonistic activity (pEC50): 7.05

[1] Cc1cccc(C#Cc2ccc(CCC(=O)O)cc2)c1 [Example A7]
[2] O=C(O)CCc1ccc(C#Cc2ncccc2[N+](=O)[O-])cc1 [Example A34]
Of 1 and 2 , which one carries the higher reported GPR40 agonistic activity (pEC50)? Please reply using the label of the selected record.
1

###

- Measured On: human GPR40 (Homo sapiens)
- Assay Text: Calcium mobilization assay, agonistic activity on GPR40
- Format: cell-based
- Experimental Setup: cells expressing human GPR40 (hGPR40-1321N1), read-out: GPR40 agonistic activity (pEC50) (converted)
Parameter Measured: EC50 (nM)

Molecule: C#CCOc1cccc(C#Cc2ccc(CCC(=O)O)cc2)c1
Test Value: 77.6

[a] O=C(O)COc1ccc(C#Cc2ccc(CO)cc2)cc1
[b] Cc1cccc(C#Cc2ccc(CCC(=O)O)cc2)n1
Compare EC50: is it lower for a or for b ? Please reply using the label of the selected record.
b
(b: 3800 nM, a: 112000 nM)

###

- Measured On: human GPR40 (Homo sapiens, UniProt O14842)
- Sequence (O14842 whole entry): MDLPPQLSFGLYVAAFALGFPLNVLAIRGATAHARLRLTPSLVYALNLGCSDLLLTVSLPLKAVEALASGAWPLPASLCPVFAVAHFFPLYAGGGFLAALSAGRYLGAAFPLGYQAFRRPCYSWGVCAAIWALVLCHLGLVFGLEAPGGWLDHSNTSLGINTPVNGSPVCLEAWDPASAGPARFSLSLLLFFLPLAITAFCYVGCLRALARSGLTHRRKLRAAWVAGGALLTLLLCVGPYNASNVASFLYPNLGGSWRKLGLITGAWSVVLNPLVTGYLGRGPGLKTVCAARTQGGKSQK
- Assay Text: Calcium mobilization assay, agonistic activity on GPR40
- Assay type: cell-based
- Experimental Setup: cells expressing human GPR40 (hGPR40-1321N1)
Parameter Measured: GPR40 agonistic activity (pEC50)

Smiles Str: O=C(O)CCc1ccc(C#Cc2cccc(O)c2)cc1
GPR40 agonistic activity (pEC50): 6.35
--
Smiles Str: O=C(O)CCc1ccc(C#Cc2cccc(CO)c2)cc1
GPR40 agonistic activity (pEC50): 6.05
--
Smiles Str: Cc1cc(C#Cc2ccc(CCC(=O)O)cc2)ccn1
GPR40 agonistic activity (pEC50): 5.95
--
Smiles Str: O=Cc1cccc(C#Cc2ccc(CCC(=O)O)cc2)c1
GPR40 agonistic activity (pEC50): 6.45
--
Smiles Str: O=C(O)CCc1ccc(C#Cc2ccccc2-c2ccccc2)cc1
GPR40 agonistic activity (pEC50): 6.00
--
Smiles Str: O=C(O)CCc1ccc(C#Cc2ccccc2)cc1
GPR40 agonistic activity (pEC50): 7.02
--
Smiles Str: O=C(O)CCc1ccc(C#Cc2ccccc2CO)cc1
GPR40 agonistic activity (pEC50): 6.24
--
Smiles Str: N#Cc1cccc(C#Cc2ccc(CCC(=O)O)cc2)c1
GPR40 agonistic activity (pEC50): 7.04
--
Smiles Str: CC(=O)c1ccccc1C#Cc1ccc(CCC(=O)O)cc1
GPR40 agonistic activity (pEC50): 6.73
--
Smiles Str: Cc1cccc(C)c1C#Cc1ccc(CCC(=O)O)cc1
GPR40 agonistic activity (pEC50): 6.38

###

- Measured On: human GPR40 (Homo sapiens, UniProt O14842)
- Assay Text: Calcium mobilization assay, agonistic activity on GPR40
- Assay type: cell-based
- Experimental Setup: cells expressing human GPR40 (hGPR40-1321N1), read-out: GPR40 agonistic activity (pEC50) (converted)
Parameter Measured: EC50 (nM)

Illustrative cases are given below, each with its answer.
Compound: Cc1ccc(C#Cc2ccc(C3CC3C(=O)O)cc2)cc1 (centres unmarked)
EC50 / nM: 309

Compound: Cc1ccccc1C#Cc1ccc(OCC(=O)O)cc1
EC50 / nM: 3630

Compound: Cc1cccc(C#Cc2ccc(OCC(=O)O)cc2)c1
EC50 / nM: 562

Compound: O=C(O)CCc1ccc(C#Cc2cccnc2)cc1
EC50 / nM: 2750

Compound: O=C(O)CCc1ccc(C#Cc2ccccn2)cc1
EC50 / nM: 8130

[1] O=C(O)CCc1ccc(C#Cc2cccc(-c3cn(Cc4ccccc4)nn3)c2)cc1
[2] Cc1ccc(C#Cc2ccc(OCC(=O)O)cc2)cc1
[3] C=CCOc1cccc(C#Cc2ccc(CCC(=O)O)cc2)c1
[4] O=C(O)COc1ccc(C#Cc2cccc(O)c2)cc1
[5] O=C(O)CCc1ccc(C#Cc2cc(Cl)nc(Cl)c2)cc1
Order by EC50, ascending. I'd appreciate it if you listed the labels in the requested order.
5, 3, 1, 4, 2
(5: 56.2 nM, 3: 145 nM, 1: 1910 nM, 4: 4790 nM, 2: 29500 nM)

###

- Measured On: human GPR40 (Homo sapiens)
- Assay Text: Calcium mobilization assay, agonistic activity on GPR40
- Type: cell-based
- Experimental Setup: cells expressing human GPR40 (hGPR40-1321N1), read-out: GPR40 agonistic activity (pEC50) (converted)
Parameter Measured: EC50 (nM)

Illustrative cases are given below, each with its answer.
Compound: O=C(O)CCc1ccc(C#Cc2cccc(OCc3ccccc3)c2)cc1 [Example A55]
Measured On: human GPR40 (Homo sapiens)
Parameter Measured: EC50
U: nM
Test Value: 525
//
Compound: O=C(O)COc1ccc(C#Cc2ccc(O)cc2)cc1 [Example A25]
Measured On: human GPR40 (Homo sapiens)
Parameter Measured: EC50
U: nM
Test Value: 132000

[1] O=C(O)CCc1ccc(C#Cc2cccc3ccccc23)cc1 [Example A6]
[2] Cc1ccc(S(=O)(=O)OCCc2ccccc2C#Cc2ccc(CCC(=O)O)cc2)cc1 [Example A61]
Compare EC50: is it lower for 1 or for 2 ? Please reply using the label of the selected record.
1
(1: 85.1 nM, 2: 316 nM)

###

- Measured On: human GPR40 (Homo sapiens, UniProt O14842)
- Assay Text: Calcium mobilization assay, agonistic activity on GPR40
- Format: cell-based
- Experimental Setup: cells expressing human GPR40 (hGPR40-1321N1), read-out: GPR40 agonistic activity (pEC50) (converted)
Parameter Measured: EC50 (nM)

Compound: Cc1ccccc1C#Cc1ccc(C2CC2C(=O)O)cc1 (stereo not drawn)
U: nM
EC50: 138
--
Compound: O=C(O)[C@@H]1C[C@H]1c1ccc(C#Cc2ccccc2)cc1 (relative stereo)
U: nM
EC50: 145
--
Compound: Cc1cccc(C#Cc2ccc(C3CC3C(=O)O)cc2)c1 (stereo not drawn)
U: nM
EC50: 93.3

[P] O=C(O)CCc1ccc(C#Cc2ccnc(Cl)c2)cc1
[Q] O=C(O)COc1ccc(C#Cc2ccccc2)cc1
[R] O=C(O)CCc1ccc(C#Cc2cccc([N+](=O)[O-])c2)cc1
Kindly order the items shown according to EC50, from the highest value down. I'd appreciate it if you listed the labels in the requested order.
Q, P, R
(Q: 1320 nM, P: 115 nM, R: 57.5 nM)
